# test protocol: pKa of amine lipid by TNS fluorescence
# Format: physicochemical
# applied conditions: probe TNS (6-(p-toluidino)-2-naphthalenesulfonic acid sodium salt), unformulated amine lipid in ethanol, sodium phosphate buffers -9.0
result type: pKa

INSERT INTO measurements (compound, recorded_value) VALUES
  ('CCCCC/C=C\C/C=C\CCCCCCCC(=O)OCC(COC(=O)CCCCCCC/C=C\C/C=C\CCCCC)OC(=O)CCC(CCCCCCCCCCCC)OC(=O)C1(C)CCN(C)CC1 (stereo not drawn)', 6.05),
  ('CCCCCC/C=C\COC(=O)CCCCCCCC(=O)OCC(COC(=O)CCCCCCCC(=O)OC/C=C\CCCCCC)OC(=O)CCC(CCCCCCCCCCCC)OC(=O)OCCCN(C)C (stereo not drawn)', 6.06),
  ('CCCCC/C=C\C/C=C\CCCCCCCC(=O)OCC(COC(=O)CCCCCCC/C=C\C/C=C\CCCCC)OC(=O)CCCC(CCCCCCCCCCCC)OC(=O)NCC1CCCN1C (stereo not drawn)', 6.05);

====

# test protocol: LNP average particle size and polydispersity by dynamic light scattering
# Assay type: physicochemical
# applied conditions: LNP with the compound as amine lipid; Expt. 10; composition ratio (mol %) 50/9/38/3 for Cmpnd 49, 50/10/38.5/1.5 for the others
result type: Z-Ave Size (nm)

INSERT INTO measurements (molecule, recorded_value) VALUES
  ('CCCCC/C=C\C/C=C\CCCCCCCC(=O)OCC(COC(=O)CCCCCCC/C=C\C/C=C\CCCCC)OC(=O)CCC(CCCCCCCC)OC(=O)NCCN(C)CC (stereo not drawn)', 95),
  ('CCCCC/C=C\C/C=C\CCCCCCCC(=O)OCC(COC(=O)CCCCCCC/C=C\C/C=C\CCCCC)OC(=O)CCC(CCCCCCCC)OC(=O)NCCN1CCCCC1 (stereo not drawn)', 70),
  ('CCCCC/C=C\C/C=C\CCCCCCCC(=O)OCC(COC(=O)CCC(OCCCCCCCC)OCCCCCCCC)COC(=O)OCCCN(CC)CC (stereo not drawn) [Compound 49, reference compound]', 90);

====

# test protocol: LNP average particle size and polydispersity by dynamic light scattering
# Type: physicochemical
# applied conditions: LNP with the compound as amine lipid; Expt. 8; composition ratio (mol %) 50/9/38/3 for Cmpnd 49, 50/10/38.5/1.5 for the others
result type: Z-Ave Size (nm)

INSERT INTO measurements (compound, result_units, recorded_value) VALUES
  ('CCCCC/C=C\C/C=C\CCCCCCCC(=O)OCC(COC(=O)CCCCCCC/C=C\C/C=C\CCCCC)OC(=O)CCC(CCCCCCC)OC(=O)NCC1CCCN1C (stereo not drawn)', 'nm', 92.14),
  ('CCCCC/C=C\C/C=C\CCCCCCCC(=O)OCC(COC(=O)CCCCCCC/C=C\C/C=C\CCCCC)OC(=O)CCC(CCCCCCCC)OC(=O)NCC1CCCN1C (stereo not drawn)', 'nm', 81.51),
  ('CCCCC/C=C\C/C=C\CCCCCCCC(=O)OCC(COC(=O)CCC(OCCCCCCCC)OCCCCCCCC)COC(=O)OCCCN(CC)CC (stereo not drawn) [Compound 49, reference compound]', 'nm', 84.47);
